assayMethodText: PK comparison, mouse
Format: in vivo
particulars: in vivo, 2 mg/kg, calculated from doses of 2 and 10 mg/kg, analyte = label, after CMX001, read-out: Cmax
observationType: Cmax (ng/mL)
Enter your answer as a number in ng/mL; do not include the unit.

// Input: CCCCCCCCCCCCCCCCOCCCOP(=O)(O)CO[C@H](CO)Cn1ccc(N)nc1=O [CMX001, Hexadecyloxypropyl-cidofovir] . Output its Cmax only.
7.9

* * *

assayMethodText: Safety and pharmacokinetics of CMX001 in healthy volunteers
Type: in vivo, human
particulars: blood, 0.6 mg/kg; Human, CMX001 0.600 mg/kg; analyte = label
observationType: AUC

[[record]]
compound = "Nc1ccn(C[C@@H](CO)OCP(=O)(O)OCCCOCCCC(=O)O)c(=O)n1"
observationtype = "AUC"
measuredvalue = "187 ng·h/mL"


// Input: `CCCCCCCCCCCCCCCCOCCCOP(=O)(O)CO[C@H](CO)Cn1ccc(N)nc1=O` . Output its AUC only.
729 ng·h/mL

// Input: Nc1ccn(C[C@@H](CO)OCP(=O)(O)O)c(=O)n1 [Cidofovir, cidofovir, reference compound] . Output its AUC only.
519 ng·h/mL
